Target: JAK1 (Homo sapiens, UniProt P23458)
Assay: In vitro JAK kinase enzymatic assay (JAK1)
Type: biochemical
pIC50: −log10 of the molar value.
So I've got a bunch of molecules here, and I need their pIC50 values.

# molecule, tgt, pIC50
measured = [
    ("O=C(CCl)Nc1cccc(-c2cnc3ccccc3n2)c1", "JAK1 (Homo sapiens, UniProt P23458)", "< 4.70"),
    ("O=C(CCCCl)Nc1cccc(-c2cnc3ccccc3n2)c1", "JAK1 (Homo sapiens, UniProt P23458)", "< 4.30"),
    ("O=C(CN1CCN(c2ccccc2)CC1)Nc1cccc(-c2cnc3ccccc3n2)c1", "JAK1 (Homo sapiens, UniProt P23458)", "< 4.70"),
    ("CC(Cl)C(=O)Nc1cccc(-c2cnc3ccccc3n2)c1 (stereo not drawn)", "JAK1 (Homo sapiens, UniProt P23458)", "< 4.30"),
]

Hello, I would appreciate it if you could give pIC50 for each entry below.
1. O=C(Nc1cccc(-c2cnc3ccccc3n2)c1)C(Cl)Cl
2. O=C(Cn1cncn1)Nc1cccc(-c2cnc3ccccc3n2)c1
3. C=CC(=O)Nc1cccc(-c2cnc3ccccc3n2)c1 [Example 22, N-(3-(quinoxalin-2-yl)phenyl)acrylamide]
4. O=C(CCCl)Nc1cccc(-c2cnc3ccccc3n2)c1
5. CN(C)CC(=O)Nc1cccc(-c2cnc3ccccc3n2)c1

[A]
["< 5.00", "< 4.30", "< 5.00", "< 4.30", "< 4.30"]

---

Reported IC50, JAK3 (Homo sapiens (Human), UniProt P52333).

Some entries whose results are on file:
# compound, assay_result
records = [
    ("O=C(CC(=O)C(F)(F)F)Nc1cccc(-c2cnc3ccccc3n2)c1 [Example 26]", "> 10 µM"),
    ("C=CCC(=O)Nc1cccc(-c2cnc3ccccc3n2)c1 [Example 23]", "> 10 µM"),
    ("CC(=O)OCC(=O)Nc1cccc(-c2cnc3ccccc3n2)c1 [Example 28]", "150 µM"),
    ("O=C(CCCl)Nc1cccc(-c2cnc3ccccc3n2)c1 [Example 19]", "> 50 µM"),
    ("O=C(Nc1cccc(-c2cnc3ccccc3n2)c1)C(Cl)Cl [Example 18]", "0.5 µM"),
    ("O=C(CN1CCCC1)Nc1cccc(-c2cnc3ccccc3n2)c1 [Example 3]", "> 20 µM"),
    ("O=C(CO)Nc1cccc(-c2cnc3ccccc3n2)c1 [Example 29]", "> 10 µM"),
    ("CN(C)CC(=O)Nc1cccc(-c2cnc3ccccc3n2)c1 [Example 2]", "> 50 µM"),
]

Below is a list of compounds. For each, state its recorded IC50.
1. O=C(CN1CCCCC1)Nc1cccc(-c2cnc3ccccc3n2)c1 [Example 9]
2. O=C(CCCCl)Nc1cccc(-c2cnc3ccccc3n2)c1 [Example 5]
3. COc1ccc(NC(=O)Nc2cccc(-c3cnc4ccccc4n3)c2)cc1 [Example 10]

[A]
1: 0.175 µM; 2: > 50 µM; 3: > 50 µM

Value sought for every listed compound: IC50.
1. C=CC(=O)Nc1cccc(-c2cnc3ccccc3n2)c1 [Example 22, N-(3-(quinoxalin-2-yl)phenyl)acrylamide]
2. O=S(=O)(Nc1cccc(-c2cnc3ccccc3n2)c1)c1cccs1 [Example 13]

[A]
["0.045 µM", "> 50 µM"]

Look at each compound and report its IC50.
1. CS(=O)(=O)OCC(=O)Nc1cccc(-c2cnc3ccccc3n2)c1 [Example 27]
2. CSCC(=O)Nc1cccc(-c2cnc3ccccc3n2)c1 [Example 25]

[A]
0.0006 µM
> 10 µM

---

Listed here: molecules with reported pIC50 for UniProt P29597.
Sequence (P29597 whole entry): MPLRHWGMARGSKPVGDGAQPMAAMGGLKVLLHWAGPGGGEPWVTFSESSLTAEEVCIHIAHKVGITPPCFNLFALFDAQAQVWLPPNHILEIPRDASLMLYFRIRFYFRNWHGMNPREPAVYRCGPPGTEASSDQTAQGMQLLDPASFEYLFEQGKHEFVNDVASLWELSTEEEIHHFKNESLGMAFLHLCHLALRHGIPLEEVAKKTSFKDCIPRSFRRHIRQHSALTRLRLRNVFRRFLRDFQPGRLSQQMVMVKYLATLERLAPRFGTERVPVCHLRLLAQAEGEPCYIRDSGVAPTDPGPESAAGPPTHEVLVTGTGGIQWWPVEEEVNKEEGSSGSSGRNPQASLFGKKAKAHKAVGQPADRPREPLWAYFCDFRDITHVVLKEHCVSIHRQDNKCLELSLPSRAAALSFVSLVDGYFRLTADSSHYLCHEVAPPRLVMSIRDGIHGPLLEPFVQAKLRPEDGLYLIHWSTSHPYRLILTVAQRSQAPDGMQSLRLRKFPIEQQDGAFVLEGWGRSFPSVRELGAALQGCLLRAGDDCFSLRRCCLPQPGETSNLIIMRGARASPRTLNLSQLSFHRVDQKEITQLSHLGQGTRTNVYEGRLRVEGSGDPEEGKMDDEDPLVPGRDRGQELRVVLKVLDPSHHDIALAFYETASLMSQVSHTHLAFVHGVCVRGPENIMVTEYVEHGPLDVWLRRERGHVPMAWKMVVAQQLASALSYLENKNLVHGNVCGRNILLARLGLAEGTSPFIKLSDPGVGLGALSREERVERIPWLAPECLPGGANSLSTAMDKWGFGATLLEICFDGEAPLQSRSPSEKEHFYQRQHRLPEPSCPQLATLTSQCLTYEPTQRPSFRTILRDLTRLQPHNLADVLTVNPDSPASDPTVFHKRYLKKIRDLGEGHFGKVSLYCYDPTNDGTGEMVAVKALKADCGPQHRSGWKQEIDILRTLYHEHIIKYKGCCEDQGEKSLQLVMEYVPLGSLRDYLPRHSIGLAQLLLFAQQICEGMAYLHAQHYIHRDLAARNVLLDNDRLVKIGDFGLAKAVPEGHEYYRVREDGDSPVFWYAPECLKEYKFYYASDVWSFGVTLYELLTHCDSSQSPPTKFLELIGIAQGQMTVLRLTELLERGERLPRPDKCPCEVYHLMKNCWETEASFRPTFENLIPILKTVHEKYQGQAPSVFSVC
pIC50: −log10 of the molar value.

# molecule, tgt, pIC50
rows = [
    ("O=C(CO)Nc1cccc(-c2cnc3ccccc3n2)c1", "UniProt P29597", "< 5.00"),
    ("O=C(CN1CCOCC1)Nc1cccc(-c2cnc3ccccc3n2)c1", "UniProt P29597", "< 4.30"),
    ("O=S(=O)(Nc1cccc(-c2cnc3ccccc3n2)c1)c1cccs1", "UniProt P29597", "< 4.30"),
    ("NS(=O)(=O)CCC(=O)Nc1cccc(-c2cnc3ccccc3n2)c1", "UniProt P29597", "< 5.00"),
    ("CC(=O)SCC(=O)Nc1cccc(-c2cnc3ccccc3n2)c1", "UniProt P29597", "< 5.00"),
]

# batch size: 2; output pIC50 per entry
1. O=C(CCCl)Nc1cccc(-c2cnc3ccccc3n2)c1
2. CCC(=O)Nc1cccc(-c2cnc3ccccc3n2)c1

[A]
< 4.30
< 4.30

Value sought for every listed molecule: pIC50.
1. CS(=O)(=O)Nc1cccc(-c2cnc3ccccc3n2)c1
2. CCOC(=O)CC(=O)Nc1cccc(-c2cnc3ccccc3n2)c1
3. O=C(Nc1cccc(-c2cnc3ccccc3n2)c1)C(Cl)Cl

[A]
["< 4.30", "< 5.00", "< 5.00"]

Hi! Can you tell me pIC50 for each of these molecules?
1. CSCC(=O)Nc1cccc(-c2cnc3ccccc3n2)c1
2. CS(=O)(=O)OCC(=O)Nc1cccc(-c2cnc3ccccc3n2)c1

[A]
["< 5.00", "< 5.00"]

---

Assignment: determine reported pIC50 for the given compounds.
Molecular target: JAK2
Experiment: In vitro JAK kinase enzymatic assay (JAK2)
pIC50: −log10 of the molar value.

# smiles_record, pIC50
records = [
    ("O=C(CN1CCN(c2ccccc2)CC1)Nc1cccc(-c2cnc3ccccc3n2)c1", 4.74),
    ("O=C(CC(=O)C(F)(F)F)Nc1cccc(-c2cnc3ccccc3n2)c1", "< 5.00"),
]

Shift focus to the following entry.
The compound listed as CC(=O)OCC(=O)Nc1cccc(-c2cnc3ccccc3n2)c1 shows pIC50 equal to < 5.00

---

Task for the reader: assign each of the following molecules its reported IC50.
Tested on: SZ-4 cells
Test: IL-2 dependent cell proliferation assay (MTT)
Format: cell-based
Conditions: Homo sapiens, 72 hr, IL-2, MTT, read-out: IC50, inhibition of proliferation
One number for each entry, in nM.

# molecule, endpoint_unit, IC50
measured = [
    ("O=C(CN1CCN(c2ccccc2)CC1)Nc1cccc(-c2cnc3ccccc3n2)c1 [Example 16]", "nM", 270),
]

--- query ---
Lab note: measured IC50 of O=C(CCl)Nc1cccc(-c2cnc3ccccc3n2)c1 [Example 1] was 0.3

---

Quick record: IC50, JAK2 (Homo sapiens).

# compound, tgt, test_readout, assay_result
measured = [
    ("CCC(=O)Nc1cccc(-c2cnc3ccccc3n2)c1 [Example 6]", "JAK2 (Homo sapiens)", "IC50", "> 50 µM"),
]

Dear colleague, could you please provide IC50 for the compounds listed below?
1. O=C(CN1CCN(c2ccccc2)CC1)Nc1cccc(-c2cnc3ccccc3n2)c1 [Example 16]
2. O=C(CCCl)Nc1cccc(-c2cnc3ccccc3n2)c1 [Example 19]
3. O=S(=O)(Nc1cccc(-c2cnc3ccccc3n2)c1)c1cccs1 [Example 13]
4. C=CC(=O)Nc1cccc(-c2cnc3ccccc3n2)c1 [Example 22, N-(3-(quinoxalin-2-yl)phenyl)acrylamide]

[A]
1: > 10 µM; 2: > 50 µM; 3: 55.5 µM; 4: > 10 µM

Form: item O=C(Nc1cccc(-c2cnc3ccccc3n2)c1)C(Cl)Cl [Example 18] ; test system JAK2 (Homo sapiens); IC50: > 10 µM

---

Lab note: IC50 readings collected with JAK1 (Homo sapiens, UniProt P23458) for the following compounds.

Answered cases to consult:
# compound, IC50
rows = [
    ("O=C(CN1CCC(O)CC1)Nc1cccc(-c2cnc3ccccc3n2)c1 [Example 34]", "> 10 µM"),
    ("O=C(CN1CCN(c2ccncc2)CC1)Nc1cccc(-c2cnc3ccccc3n2)c1 [Example 33]", "> 10 µM"),
]

Can you give me IC50 for all of these, one by one?
1. O=C(Nc1cccc(-c2cnc3ccccc3n2)c1)c1ccco1 [Example 12]
2. CN1CCN(CC(=O)Nc2cccc(-c3cnc4ccccc4n3)c2)CC1 [Example 17]
3. O=C(CN1CCOCC1)Nc1cccc(-c2cnc3ccccc3n2)c1 [Example 20]
4. CSCC(=O)Nc1cccc(-c2cnc3ccccc3n2)c1 [Example 25]
5. NS(=O)(=O)CCC(=O)Nc1cccc(-c2cnc3ccccc3n2)c1 [Example 36]

[A]
1. > 50 µM
2. > 50 µM
3. > 50 µM
4. > 10 µM
5. > 10 µM

---

Target: JAK2
Assay: In vitro JAK kinase enzymatic assay (JAK2)
test_readout: IC50

Record excerpt, results attached:
# smiles_record, IC50
data = [
    ("CC(=O)SCC(=O)Nc1cccc(-c2cnc3ccccc3n2)c1", "> 10 µM"),
    ("NS(=O)(=O)CCC(=O)Nc1cccc(-c2cnc3ccccc3n2)c1", "> 10 µM"),
    ("COc1ccc(NC(=O)Nc2cccc(-c3cnc4ccccc4n3)c2)cc1", "> 50 µM"),
    ("O=C(CN1CCNCC1)Nc1cccc(-c2cnc3ccccc3n2)c1", "> 20 µM"),
    ("O=C(CCl)Nc1cccc(-c2cnc3ccccc3n2)c1", "> 20 µM"),
    ("CS(=O)(=O)Nc1cccc(-c2cnc3ccccc3n2)c1", "18.5 µM"),
    ("CSCC(=O)Nc1cccc(-c2cnc3ccccc3n2)c1", "> 10 µM"),
    ("C=CCC(=O)Nc1cccc(-c2cnc3ccccc3n2)c1", "> 10 µM"),
    ("O=C(Nc1cccc(-c2cnc3ccccc3n2)c1)c1ccco1", "24.6 µM"),
    ("O=C(CN1CCCC1)Nc1cccc(-c2cnc3ccccc3n2)c1", "> 20 µM"),
]

Consider the additional molecule presented here.
The molecule CN(C)CC(=O)Nc1cccc(-c2cnc3ccccc3n2)c1 on JAK2: IC50 was > 50 µM
